# Measured on: UniProtKB Q91WC9
# Sequence (Q91WC9 whole entry, looked up): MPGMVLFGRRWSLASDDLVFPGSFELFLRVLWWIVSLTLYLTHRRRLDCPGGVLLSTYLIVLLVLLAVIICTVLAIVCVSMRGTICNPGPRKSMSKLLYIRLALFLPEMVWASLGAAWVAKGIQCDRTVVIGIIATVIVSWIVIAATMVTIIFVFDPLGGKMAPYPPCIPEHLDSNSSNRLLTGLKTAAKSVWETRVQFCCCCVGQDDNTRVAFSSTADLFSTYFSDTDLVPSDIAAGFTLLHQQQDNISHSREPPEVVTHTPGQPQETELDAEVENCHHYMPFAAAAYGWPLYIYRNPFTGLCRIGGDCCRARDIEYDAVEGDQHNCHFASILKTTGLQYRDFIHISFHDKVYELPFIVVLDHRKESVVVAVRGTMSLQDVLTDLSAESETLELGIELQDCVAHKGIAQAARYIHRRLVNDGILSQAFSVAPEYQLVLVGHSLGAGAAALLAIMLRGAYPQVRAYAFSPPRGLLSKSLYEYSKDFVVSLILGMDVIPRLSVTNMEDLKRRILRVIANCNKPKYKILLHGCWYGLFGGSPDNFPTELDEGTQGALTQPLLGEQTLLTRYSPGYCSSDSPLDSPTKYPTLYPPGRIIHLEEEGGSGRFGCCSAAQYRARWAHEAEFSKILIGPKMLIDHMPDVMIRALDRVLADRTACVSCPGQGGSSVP
# Protocol summary: DAGLb inhibition in intact mouse cells, late-stage follow-up, cell-based, gel-based competitive ABPP, fluorescence, in situ, dose response (AID 602354)
# Test conditions: DAGLb
pIC50: −log10 of the molar value.
Property measured: pIC50

[[record]]
molecule = "COc1ccccc1-c1ccc(-c2cn(C(=O)N3CCCCC3Cc3ccccc3)nn2)cc1 (configuration not stated)"
observed_value = 7.92

[[record]]
molecule = "O=C(N1CCCCC1Cc1ccccc1)n1cc(-c2ccc(-c3ccccc3)cc2)nn1 (configuration not stated)"
observed_value = 7.80

